Entries and their PBM binding z-score
Tested on: RARg:RXRa (NR concentration 270 nM, RXRa partner concentration 90 nM)
Assay: PBM binding z-score (relative to random genomic background probes); higher = stronger binding; sequences stand for … in GC…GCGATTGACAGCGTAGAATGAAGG
Property measured: PBM binding z-score

Macromolecule sequence: ACTAGCAGGCCCAGGGTCACTCAAGATTAGTCCG
Observed: 2.39

Macromolecule sequence: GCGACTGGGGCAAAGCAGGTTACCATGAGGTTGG
Observed: 0.634

Macromolecule sequence: AGAATGAGGTTATACGTAGATCGGGGAAGAAAGT
Observed: 1.6

Macromolecule sequence: ACTAGCAGGCCAAGGGTCACCCAAGATTAGTCCG
Observed: 4.79

Macromolecule sequence: TATACAGGCTCAAAGGCCAGAGTACGAATGTCGA
Observed: 0.637

Macromolecule sequence: GCTTACGGGTCAAAGGTTATATCATGAATAGAAT
Observed: 6.74

Macromolecule sequence: TAACCTAGGTCATTGGGCCAGTATAGTACGCATC
Observed: 4.58

Macromolecule sequence: CCTCGGAGGACAACAGGAAGTCAGAGCTGCCAGA
Observed: 0.396

Macromolecule sequence: TAGCCTAAGTCATTCAGGGGCCAGTATAGAAAGC
Observed: 1.72

Macromolecule sequence: ATATGTAGGTTAGGTGGGGTCATTCAGACTAGGC
Observed: 4.1

Macromolecule sequence: TCATATAGGTAAATGCTAGGTGAGAGTCCGATCT
Observed: 0.257

Macromolecule sequence: TAGTCTAGGTCAGATCGGGCCAGTATACGCTATA
Observed: 2.72

* * *

Tested on: FXR:RXRa (NR concentration 270 nM, RXRa partner concentration 90 nM)
Test: PBM binding z-score (relative to random genomic background probes); higher = stronger binding; sequences stand for … in GC…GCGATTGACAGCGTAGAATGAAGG

Macromolecule sequence: CGTCCAATGTCAGAGAGGTCAGTGAATGCCGAGT
PBM binding z-score: 2.31
//
Macromolecule sequence: CGAACTAGATCAAGGACAGTGAATCTCCGCACGC
PBM binding z-score: -0.0387
//
Macromolecule sequence: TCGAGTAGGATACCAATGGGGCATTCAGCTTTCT
PBM binding z-score: -0.594
//
Macromolecule sequence: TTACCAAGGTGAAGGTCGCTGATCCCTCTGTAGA
PBM binding z-score: 1.1
//
Macromolecule sequence: ATCTCTAGATAAAGATAGTTCAGTGAATGCAAAT
PBM binding z-score: -0.281
//
Macromolecule sequence: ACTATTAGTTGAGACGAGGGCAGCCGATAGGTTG
PBM binding z-score: 0.474
//
Macromolecule sequence: TCTAGCAGGCCTGAGGGTCACTCAAGAGGTACGG
PBM binding z-score: 1.03
//
Macromolecule sequence: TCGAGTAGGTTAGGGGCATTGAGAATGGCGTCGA
PBM binding z-score: 0.089
//
Macromolecule sequence: TCTAGTTTGTCACGGAGGTCACACACGACGGGTA
PBM binding z-score: 3.46
//
Macromolecule sequence: CCTACTGGGGCAAGGTCATTGATCAGTCAAAGCA
PBM binding z-score: 3.59
//
Macromolecule sequence: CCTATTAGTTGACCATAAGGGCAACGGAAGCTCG
PBM binding z-score: 0.826
//
Macromolecule sequence: AGTCAACGTTCACTAGGTAACGTAAGATTCAGCT
PBM binding z-score: -0.243
//
Macromolecule sequence: ATCTCTAGGTAACAAGTTCAGTAAAAGAGAGGAC
PBM binding z-score: 0.872
//
Macromolecule sequence: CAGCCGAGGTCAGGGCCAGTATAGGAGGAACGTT
PBM binding z-score: 6.57
//
Macromolecule sequence: ATACCTAGGTGATCGTGAGGTCGTTGATACTAAC
PBM binding z-score: 1.53
//
Macromolecule sequence: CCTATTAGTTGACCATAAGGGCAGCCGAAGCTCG
PBM binding z-score: 0.542
//
Macromolecule sequence: CGATCTAGGTCAAGGACAGTGAATCTCCGCACGC
PBM binding z-score: 3.25
//
Macromolecule sequence: TCAGACAGGTGAAGGTAACCCAGGTACGCAGTCG
PBM binding z-score: 1.04
//
Macromolecule sequence: CAAACTAGGTCACGAAGGGTCAAAGTCGAATGAC
PBM binding z-score: 7.24
//
Macromolecule sequence: TCTGCAAGGTCAGTTGGTCAGCTAACGAGCTGCC
PBM binding z-score: 4.25
//
Macromolecule sequence: TCTTGTAGATCAAAGGTTATGAAAGCCGAAGCCT
PBM binding z-score: 1.67
//
Macromolecule sequence: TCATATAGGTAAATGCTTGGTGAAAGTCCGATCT
PBM binding z-score: 0.688
//
Macromolecule sequence: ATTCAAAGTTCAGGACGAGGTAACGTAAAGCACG
PBM binding z-score: 4.14
//
Macromolecule sequence: CGAACTACGTCATTGACAGGACAGTGAATAGTAA
PBM binding z-score: -0.386
//
Macromolecule sequence: AGAATGAGGTTATTAAGATCAGTGAATTGCGGTC
PBM binding z-score: 1.66
//
Macromolecule sequence: TCTAGTTGCTCAAAGGTCACACACTCGAAATGCG
PBM binding z-score: 5.09
